# Tested on: BT-20
# test_summary: Growth inhibition of cell lines treated with 2X-121
# Format: cell-based
# experimental_setup: Homo sapiens; cell line BT-20, origin Breast; read-out: Measured growth inhibition IC50
reported_endpoint: pIC50
// scale note: pIC50 = -log10(conc_M); give the bare number

Input line: Quick one: pIC50 for O=c1[nH]nc2c3c(cccc13)N=C(CN1Cc3ccccc3C1)N2 ?
Output line: 5.10

----------
# Test system: SNU-182
# test_summary: Growth inhibition of cell lines treated with 2X-121
# Type: cell-based
# experimental_setup: Homo sapiens; cell line SNU-182, origin HCC; read-out: Measured growth inhibition IC50
reported_endpoint: IC50 (µM)
Numeric only. Scale: µM

Input line: Quick one: IC50 for O=c1[nH]nc2c3c(cccc13)N=C(CN1Cc3ccccc3C1)N2 [2X-121] ?
Output line: 5.4

----------
# Tested on: KG-1
# test_summary: Growth inhibition of cell lines treated with 2X-121
# Format: cell-based
# experimental_setup: Homo sapiens; cell line KG-1, origin AML; read-out: Measured growth inhibition IC50
reported_endpoint: IC50 (nM)
Numeric only. Scale: nM

Input line: Quick one: IC50 for O=c1[nH]nc2c3c(cccc13)N=C(CN1Cc3ccccc3C1)N2 ?
Output line: 2000

----------
# Test system: DU145
# test_summary: Growth inhibition of cell lines treated with 2X-121
# Type: cell-based
# experimental_setup: Homo sapiens, DU-145; cell line DU145, origin Prostate; read-out: Measured growth inhibition IC50
reported_endpoint: IC50 (nM)
Numeric only. Scale: nM

Input line: Quick one: IC50 for O=c1[nH]nc2c3c(cccc13)N=C(CN1Cc3ccccc3C1)N2 ?
Output line: 1800

----------
# System: HEC-6
# test_summary: Growth inhibition of cell lines treated with 2X-121
# Type: cell-based
# experimental_setup: cell line HEC-6, origin Endometrial; read-out: Measured growth inhibition IC50
reported_endpoint: IC50 (µM)
Numeric only. Scale: µM

Input line: Quick one: IC50 for O=c1[nH]nc2c3c(cccc13)N=C(CN1Cc3ccccc3C1)N2 [2X-121] ?
Output line: 1.88

----------
# Tested on: A549
# test_summary: Growth inhibition of cell lines treated with 2X-121
# Type: cell-based
# experimental_setup: Homo sapiens; cell line A549, origin NSCLC; read-out: Measured growth inhibition IC50
reported_endpoint: IC50 (nM)
Numeric only. Scale: nM

Input line: Quick one: IC50 for O=c1[nH]nc2c3c(cccc13)N=C(CN1Cc3ccccc3C1)N2 ?
Output line: 2200

----------
# Test system: HEC-1A
# test_summary: Growth inhibition of cell lines treated with 2X-121
# Assay type: cell-based
# experimental_setup: Homo sapiens; cell line HEC-1A, origin Endometrial; read-out: Measured growth inhibition IC50
reported_endpoint: IC50

Input line: Quick one: IC50 for O=c1[nH]nc2c3c(cccc13)N=C(CN1Cc3ccccc3C1)N2 ?
Output line: 2.96 µM

----------
# System: MDA-MB-157
# test_summary: Growth inhibition of cell lines treated with 2X-121
# Assay type: cell-based
# experimental_setup: Homo sapiens; cell line MDA-MB-157, origin Breast; read-out: Measured growth inhibition IC50
reported_endpoint: pIC50
// scale note: pIC50 = -log10(conc_M); give the bare number

Input line: Quick one: pIC50 for O=c1[nH]nc2c3c(cccc13)N=C(CN1Cc3ccccc3C1)N2 [2X-121] ?
Output line: 5.17

----------
# Tested on: M14
# test_summary: Growth inhibition of cell lines treated with 2X-121
# Assay type: cell-based
# experimental_setup: Homo sapiens; cell line M14, origin Melanoma; read-out: Measured growth inhibition IC50
reported_endpoint: pIC50
// scale note: pIC50 = -log10(conc_M); give the bare number

Input line: Quick one: pIC50 for O=c1[nH]nc2c3c(cccc13)N=C(CN1Cc3ccccc3C1)N2 ?
Output line: 5.17
